Just for reference, PubChem BioAssay (EPA / NIEHS) is where these values come from.

# measured_on: Hepatocyte nuclear factor 6 (Homo sapiens) (UniProt Q9UBC0)
# Sequence (Q9UBC0 whole entry, looked up): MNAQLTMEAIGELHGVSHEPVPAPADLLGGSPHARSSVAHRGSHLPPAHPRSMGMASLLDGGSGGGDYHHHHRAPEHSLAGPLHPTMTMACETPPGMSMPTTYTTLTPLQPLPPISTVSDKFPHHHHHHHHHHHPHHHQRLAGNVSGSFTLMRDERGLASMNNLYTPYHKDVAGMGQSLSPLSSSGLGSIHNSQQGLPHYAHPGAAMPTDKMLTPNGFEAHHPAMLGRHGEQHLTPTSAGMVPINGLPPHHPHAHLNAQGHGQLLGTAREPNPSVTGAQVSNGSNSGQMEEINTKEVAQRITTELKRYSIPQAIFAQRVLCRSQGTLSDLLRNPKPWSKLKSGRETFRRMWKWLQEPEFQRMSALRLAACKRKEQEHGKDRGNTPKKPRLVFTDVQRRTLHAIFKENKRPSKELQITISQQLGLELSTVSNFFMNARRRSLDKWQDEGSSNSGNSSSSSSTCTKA
# method_description: ATG_HNF6_CIS: Attagene CIS-FACTORIAL HepG2 Assay for human Hepatocyte Nuclear Factor 6 (HNF6) (AID 2282952)
# conditions_used: HepG2 Attagene cis-factorial HNF6 reporter transcription; actives raise or lower the signal
Calls of active or inactive are those of the source. The calls were made as follows: active = hit-call score of the fitted dose curve at least 0.9, where 1 is the maximum; inactive = score below 0.9.
Outcome codes: T (active), F (inactive)

>>> class_label("Nc1cc(Cl)c(-c2cc(Cl)c(N)cc2Cl)cc1Cl")
"F"
>>> class_label("CCCCCCCCCCCCCCCCCC[N+](C)(C)Cc1ccccc1")
"T"
>>> class_label("O=C(O)C(=O)O")
"F"
>>> class_label("C=CC(=C)CC/C=C(\\C)CCC=C(C)C")
"F"
>>> class_label("O=C1OC2(c3ccccc31)c1cc(I)c(O)c(I)c1Oc1c2cc(I)c(O)c1I")
"F"
>>> class_label("CCCCCC(C)OC(=O)COc1ccc(Cl)c2cccnc12 (stereo not drawn)")
"F"
>>> class_label("CCCCC=O")
"F"
>>> class_label("O=c1cc(-c2ccccc2)oc2ccc3ccccc3c12")
"F"
>>> class_label("CCC(C)c1nccnc1OC (stereo not drawn)")
"F"
>>> class_label("COc1cc(OC)nc(NC(=O)NS(=O)(=O)Nc2ccccc2C(=O)N(C)C)n1")
"F"
>>> class_label("Cc1ccccc1OCC(=O)O")
"F"
>>> class_label("CCCCCCCCCCCCCCC")
"F"
>>> class_label("O=S(=O)(O)C(F)(F)C(F)(F)C(F)(F)C(F)(F)C(F)(F)C(F)(F)C(F)(F)C(F)(F)C(F)(F)C(F)(F)F")
"F"

###

# Read-out: catalase (CAT), CAT (gene 847)
# method_description: LTEA_HepaRG_CAT: Life Technologies and Expression Analysis (LTEA) Assay for catalase (CAT) using HepaRG (AID 2283452)
# conditions_used: mRNA level, 48 h; actives raise or lower the signal
Active and inactive are the calls of the source. Rule for the calls: active = hit-call score of the fitted dose curve at least 0.9, where 1 is the maximum; inactive = score below 0.9.
Outcome codes: active, inactive

>>> class_label("OCC(CO)(CBr)CBr")
"inactive"
>>> class_label("CCCCC=O")
"inactive"
>>> class_label("CCCCCCCCCCCCCCC")
"inactive"
>>> class_label("O=C(CCCN1CCC(O)(c2ccc(Cl)cc2)CC1)c1ccc(F)cc1")
"active"
>>> class_label("O=C(c1ccccc1)c1ccccc1")
"inactive"
>>> class_label("Cc1[nH]nc2c1N=C(c1ccccc1Cl)c1cc([N+](=O)[O-])ccc1N2")
"active"
>>> class_label("CCC(C)c1ccccc1O (stereo unspecified)")
"inactive"
>>> class_label("CN(Cc1cnc2nc(N)nc(N)c2n1)c1ccc(C(=O)N[C@@H](CCC(=O)O)C(=O)O)cc1")
"inactive"
>>> class_label("CC(=O)Nc1ccc(O)cc1")
"inactive"
>>> class_label("N=C(N)c1ccc(OCCCCCOc2ccc(C(=N)N)cc2)cc1")
"active"
>>> class_label("O=C1NS(=O)(=O)c2ccccc21")
"inactive"

###

# method_description: Tanguay_ZF_120hpf_EDEM: Oregon State University Tanguay Lab 120 Hour Post-fertilization zebrafish Assay for Edema Malformation (AID 2284400)
Activity calls are given as the source filed them. The calls were made as follows: active = hit-call score of the fitted dose curve at least 0.9, where 1 is the maximum; inactive = score below 0.9.
Outcome codes: True for active, False for inactive

>>> class_label("OCC(F)(F)C(F)(F)C(F)(F)C(F)(F)C(F)(F)C(F)(F)C(F)(F)C(F)(F)C(F)(F)C(F)(F)C(F)(F)F")
"False"
>>> class_label("O=P(O)(O)CCC(F)(F)C(F)(F)C(F)(F)C(F)(F)C(F)(F)C(F)(F)C(F)(F)C(F)(F)F")
"False"
>>> class_label("O=C(O)CCC(F)(F)C(F)(F)C(F)(F)C(F)(F)C(F)(F)F")
"False"
>>> class_label("O=C(CC(=O)C(F)(F)C(F)(F)C(F)(F)F)c1cccs1")
"True"
>>> class_label("C=CC(=O)OCCC(F)(F)C(F)(F)C(F)(F)C(F)(F)C(F)(F)C(F)(F)C(F)(F)C(F)(F)F")
"False"
